Target: T1, human GIPR (human, UniProt P48546 22-466)
T1 sequence (looked up): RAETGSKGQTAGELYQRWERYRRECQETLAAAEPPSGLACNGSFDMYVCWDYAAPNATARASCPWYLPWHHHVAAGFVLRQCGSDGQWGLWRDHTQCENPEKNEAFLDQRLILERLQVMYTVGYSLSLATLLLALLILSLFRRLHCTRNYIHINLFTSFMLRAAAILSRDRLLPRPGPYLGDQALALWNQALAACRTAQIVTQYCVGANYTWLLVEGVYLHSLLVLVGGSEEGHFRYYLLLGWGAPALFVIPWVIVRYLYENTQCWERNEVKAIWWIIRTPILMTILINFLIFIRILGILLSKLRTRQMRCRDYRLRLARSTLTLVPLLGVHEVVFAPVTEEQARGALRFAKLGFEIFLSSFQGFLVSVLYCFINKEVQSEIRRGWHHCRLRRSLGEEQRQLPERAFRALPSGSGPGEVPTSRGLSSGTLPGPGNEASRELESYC
Assay: cell-based or functional assay
Non-standard residues stand in square brackets, D forms with d. Groups on a side chain read outwards from the residue. No end group written: not given here. *: point of attachment. C15 diacid = O=C(O)CCCCCCCCCCCCCC(=O)*; Aib = CC(C)(N)C(=O)O
REPORTED METRIC: GIPR EC50 nM (A)

Past entries and their recorded results:
Y[Aib]EGTFISDYSIALDKIHQQK([ethylene glycol-ethylene glycol-C15 diacid])FVNWLLAQR-NH2 [Compound No. 28] : < 0.001 nM
Y[Aib]EGTFISDYSIALDKIK([ethylene glycol-ethylene glycol-C15 diacid])QQDFVNWLLAQRG-OH [Compound No. 25] : < 0.001 nM

## Task State its GIPR EC50 nM (A): Y[Aib]EGTFISDYSIALDKIHQQK([ethylene glycol-ethylene glycol-C15 diacid])FVNWLLAQRG-OH [Compound No. 24]
## Result < 0.001 nM
